Test system: CAL-12T
Assay: relative viability (nuclei count vs DMSO), 5 days (fraction); higher = more cells survive
Conditions: first compound 0.8 µM
QUANTITY KIND: relative viability

Item O=c1cc(-c2cccc3c2Sc2ccccc2S3)oc(N2CCOCC2)c1 + CC1(C)CCC(c2ccc(Cl)cc2)=C(CN2CCN(c3ccc(C(=O)NS(=O)(=O)c4ccc(N[C@H](CCN5CCOCC5)CSc5ccccc5)c(S(=O)(=O)C(F)(F)F)c4)cc3)CC2)C1 [Navitoclax] (partner 0.5 µM) was tested on CAL-12T; the reported relative viability is 1.48

Test item COc1nc(C)cnc1NS(=O)(=O)c1cccnc1-c1ccc(-c2nnco2)cc1 [Zibotentan] + O=C(CCCCCCC(=O)Nc1ccccc1)NO [Vorinostat] (partner 1 µM) ; CAL-12T; reported relative viability was 0.742

###

Tested on: ABC-1
Assay: relative viability (nuclei count vs DMSO), 5 days (fraction); higher = more cells survive
Settings: first compound 0.03162 µM
Please use true (1) for relative viability under 0.5 and false (0) for everything else, ties included.

O=c1cc(N2CCOCC2)oc2c(-c3cccc4c3sc3ccccc34)cccc12 + Cc1cc(Nc2cc(N3CCN(C)CC3)nc(Sc3ccc(NC(=O)C4CC4)cc3)n2)n[nH]1 [Tozasertib] (partner 0.1 µM); true (1)
CCN(CC)CCCCNc1ncc2cc(-c3cc(OC)cc(OC)c3)c(NC(=O)NC(C)(C)C)nc2n1 + Nc1ncn([C@H]2C[C@H](O)[C@@H](CO)O2)c(=O)n1 [Decitabine] (partner 2 µM); false (0)
O=c1cc(N2CCOCC2)oc2c(-c3cccc4c3sc3ccccc34)cccc12 + CCNC(=O)c1noc(-c2cc(C(C)C)c(O)cc2O)c1-c1ccc(CN2CCOCC2)cc1 [Luminespib] (partner 0.01 µM); true (1)
O=c1cc(N2CCOCC2)oc2c(-c3cccc4c3sc3ccccc34)cccc12 + COc1cc2c(Oc3ccc(NC(=O)C4(C(=O)Nc5ccc(F)cc5)CC4)cc3F)ccnc2cc1OCCCN1CCOCC1 [Foretinib] (partner 0.25 µM); false (0)
O=c1cc(N2CCOCC2)oc2c(-c3cccc4c3sc3ccccc34)cccc12 + COc1cccc2cc(-c3nc([C@H]4CC[C@H](C(=O)O)CC4)n4ncnc(N)c34)[nH]c12 [OSI-027] (partner 0.5 µM); true (1)

Now consider a different molecule.
Req: Please determine if O=c1cc(N2CCOCC2)oc2c(-c3cccc4c3sc3ccccc34)cccc12 + O=C(c1cc(Cc2n[nH]c(=O)c3ccccc23)ccc1F)N1CCN(C(=O)C2CC2)CC1 [Olaparib] (partner 8 µM) is below 0.5 in terms of relative viability.
Resp: false (0)

###

System: NCI-H650
Assay: relative viability (nuclei count vs DMSO), 5 days (fraction); higher = more cells survive
Conditions: first compound 0.253 µM
Field: label. Allowed values: y (relative viability < 0.5) or n (relative viability >= 0.5).

Previously resolved entries follow.
O=c1cc(-c2cccc3c2Sc2ccccc2S3)oc(N2CCOCC2)c1 + O=C(CCCCCCC(=O)Nc1ccccc1)NO [Vorinostat] (partner 1 µM); y
O=c1cc(-c2cccc3c2Sc2ccccc2S3)oc(N2CCOCC2)c1 + C[C@@H](Oc1cc(-c2cnn(C3CCNCC3)c2)cnc1N)c1c(Cl)ccc(F)c1Cl [Crizotinib] (partner 1 µM); n
COc1nc(C)cnc1NS(=O)(=O)c1cccnc1-c1ccc(-c2nnco2)cc1 [Zibotentan] + C[C@]1(O)C[C@@H](c2nc(-c3ccc4ccc(-c5ccccc5)nc4c3)c3c(N)nccn32)C1 [Linsitinib] (partner 1 µM); n

Req: Consider the compound COc1nc(C)cnc1NS(=O)(=O)c1cccnc1-c1ccc(-c2nnco2)cc1 [Zibotentan] + O=C(c1cc(Cc2n[nH]c(=O)c3ccccc23)ccc1F)N1CCN(C(=O)C2CC2)CC1 [Olaparib] (partner 8 µM) . Is its relative viability strictly less than 0.5?
Resp: y

Req: Is 0.5 strictly greater than the compound's reported relative viability? compound: COc1nc(C)cnc1NS(=O)(=O)c1cccnc1-c1ccc(-c2nnco2)cc1 [Zibotentan] + O=C(CCCCCCC(=O)Nc1ccccc1)NO [Vorinostat] (partner 1 µM)
Resp: y

###

Tested on: 201T
Assay: relative viability (nuclei count vs DMSO), 5 days (fraction); higher = more cells survive
Settings: first compound 0.253 µM
QUANTITY KIND: relative viability
# answer = number (no unit)

Per the records, this compound ( COc1nc(C)cnc1NS(=O)(=O)c1cccnc1-c1ccc(-c2nnco2)cc1 [Zibotentan] + CCNC(=O)c1noc(-c2cc(C(C)C)c(O)cc2O)c1-c1ccc(CN2CCOCC2)cc1 [Luminespib] (partner 0.01 µM) ) has relative viability equal to 1.03

The compound COc1nc(C)cnc1NS(=O)(=O)c1cccnc1-c1ccc(-c2nnco2)cc1 [Zibotentan] + Nc1ncn([C@H]2C[C@H](O)[C@@H](CO)O2)c(=O)n1 [Decitabine] (partner 2 µM) showed relative viability equal to 0.865

Noted for COc1nc(C)cnc1NS(=O)(=O)c1cccnc1-c1ccc(-c2nnco2)cc1 [Zibotentan] + C[C@@H](Oc1cc(-c2cnn(C3CCNCC3)c2)cnc1N)c1c(Cl)ccc(F)c1Cl [Crizotinib] (partner 1 µM) : its relative viability reads 0.992

###

System: NCI-H2009
Assay: relative viability (nuclei count vs DMSO), 5 days (fraction); higher = more cells survive
Settings: first compound 0.03162 µM
QUANTITY KIND: relative viability
Form field (numeric): enter value without unit.

// known answers, use as guide
CCN(CC)CCCCNc1ncc2cc(-c3cc(OC)cc(OC)c3)c(NC(=O)NC(C)(C)C)nc2n1 + CS(=O)(=O)CCNCc1ccc(-c2ccc3ncnc(Nc4ccc(OCc5cccc(F)c5)c(Cl)c4)c3c2)o1 [Lapatinib] (partner 2 µM); 0.971
CCN(CC)CCCCNc1ncc2cc(-c3cc(OC)cc(OC)c3)c(NC(=O)NC(C)(C)C)nc2n1 + CC(=O)c1c(C)c2cnc(Nc3ccc(N4CCNCC4)cn3)nc2n(C2CCCC2)c1=O [Palbociclib] (partner 0.5 µM); 0.22
CCN(CC)CCCCNc1ncc2cc(-c3cc(OC)cc(OC)c3)c(NC(=O)NC(C)(C)C)nc2n1 + CS(=O)(=O)N1CCN(Cc2cc3nc(-c4cccc5[nH]ncc45)nc(N4CCOCC4)c3s2)CC1 [Pictilisib] (partner 1 µM); 0.79
CCN(CC)CCCCNc1ncc2cc(-c3cc(OC)cc(OC)c3)c(NC(=O)NC(C)(C)C)nc2n1 + Cc1nc(Nc2ncc(C(=O)Nc3c(C)cccc3Cl)s2)cc(N2CCN(CCO)CC2)n1 [Dasatinib] (partner 0.075 µM); 0.316

Kindly review the next compound as well.
Test item CCN(CC)CCCCNc1ncc2cc(-c3cc(OC)cc(OC)c3)c(NC(=O)NC(C)(C)C)nc2n1 + N=C(N)NC(=N)NCCc1ccccc1 [Phenformin] (partner 250 µM) ; NCI-H2009; reported relative viability was 0.462

###

List of relative viability values.
Test system: A-427
Assay: relative viability (nuclei count vs DMSO), 5 days (fraction); higher = more cells survive
Conditions: first compound 0.1 µM
Response field accepts a number only; no unit should be typed.

Worked cases, relative viability given:
O=c1cc(N2CCOCC2)oc2c(-c3cccc4c3sc3ccccc34)cccc12 + C[C@@H](Oc1cc(-c2cnn(C3CCNCC3)c2)cnc1N)c1c(Cl)ccc(F)c1Cl [Crizotinib] (partner 1 µM); 0.807
CCN(CC)CCCCNc1ncc2cc(-c3cc(OC)cc(OC)c3)c(NC(=O)NC(C)(C)C)nc2n1 + O=C(c1cc(Cc2n[nH]c(=O)c3ccccc23)ccc1F)N1CCN(C(=O)C2CC2)CC1 [Olaparib] (partner 8 µM); 0.838
O=c1cc(N2CCOCC2)oc2c(-c3cccc4c3sc3ccccc34)cccc12 + Cc1nc(Nc2ncc(C(=O)Nc3c(C)cccc3Cl)s2)cc(N2CCN(CCO)CC2)n1 [Dasatinib] (partner 0.075 µM); 0.677
CCN(CC)CCCCNc1ncc2cc(-c3cc(OC)cc(OC)c3)c(NC(=O)NC(C)(C)C)nc2n1 + Cc1nc(Nc2ncc(C(=O)Nc3c(C)cccc3Cl)s2)cc(N2CCN(CCO)CC2)n1 [Dasatinib] (partner 0.075 µM); 0.924
O=c1cc(N2CCOCC2)oc2c(-c3cccc4c3sc3ccccc34)cccc12 + Cc1nc(NC(=O)N2CCC[C@H]2C(N)=O)sc1-c1ccnc(C(C)(C)C(F)(F)F)c1 [Alpelisib] (partner 2 µM); 1.03

Lab note: measured relative viability of CCN(CC)CCCCNc1ncc2cc(-c3cc(OC)cc(OC)c3)c(NC(=O)NC(C)(C)C)nc2n1 + Nc1nc2[nH]cc(CCc3ccc(C(=O)N[C@@H](CCC(=O)O)C(=O)O)cc3)c2c(=O)[nH]1 [Pemetrexed] (partner 0.2 µM) was 1.06

relative viability reading for CCN(CC)CCCCNc1ncc2cc(-c3cc(OC)cc(OC)c3)c(NC(=O)NC(C)(C)C)nc2n1 + N=C(N)NC(=N)NCCc1ccccc1 [Phenformin] (partner 250 µM) : 0.289

relative viability for O=c1cc(N2CCOCC2)oc2c(-c3cccc4c3sc3ccccc34)cccc12 + Nc1nc2[nH]cc(CCc3ccc(C(=O)N[C@@H](CCC(=O)O)C(=O)O)cc3)c2c(=O)[nH]1 [Pemetrexed] (partner 0.2 µM) is 0.954
